- methodDescription: Stability in human intestinal S9 fraction (HIS9)
- Assay type: in vitro ADME
- cond: human intestinal S9 0.4 mg protein/mL, 5 μM test compound, 37° C.
measuredParameter: CLint Intestinal S9 (µL/min/mg)

molecule	measuredParameter	assayValue
Nc1ccn([C@@H]2CO[C@H](COP(=O)(N[C@@H](Cc3ccccc3)C(=O)OCc3ccccc3)Oc3cccc(C4CC4)c3)O2)c(=O)n1 (single isomer, unassigned; dia-2) [12 dia-2]	CLint Intestinal S9	300
CC[C@@H](C)OC(=O)[C@H](C)NP(=O)(OC[C@H]1OC[C@@H](n2ccc(N)nc2=O)O1)Oc1ccc([Si](C)(C)C)cc1 (single isomer, unassigned; dia-2) [11 dia-2]	CLint Intestinal S9	28
CCCC(CCC)COC(=O)C(Cc1ccccc1)NP(=O)(OCC1OCC(n2ccc(N)nc2=O)O1)Oc1ccccc1 (mixture of isomers) [13 diamix 4:1]	CLint Intestinal S9	27
CCC[C@H](C)OC(=O)[C@H](C)NP(=O)(OC[C@H]1OC[C@@H](n2ccc(N)nc2=O)O1)Oc1ccc(C2CC2)cc1 (single isomer, unassigned; dia-2) [16 dia-2]	CLint Intestinal S9	8
CCCCCCCCCCCCCCCC(=O)Nc1ccn([C@@H]2CO[C@H](COP(=O)(N[C@@H](C)C(=O)OC(C)C)Oc3ccccc3)O2)c(=O)n1 (single isomer, unassigned; dia-2) [35 dia-2]	CLint Intestinal S9	51

----------
- methodDescription: Stability in human liver S9 fraction (HLS9)
- Type: in vitro ADME
- cond: human liver S9 0.4 mg protein/mL, 5 μM test compound, 37° C.
CLint Liver S9 values, listed per item

compound	valueUnit	CLint Liver S9
CCCC(CCC)COC(=O)[C@H](C)NP(=O)(OC[C@H]1OC[C@@H](n2ccc(N)nc2=O)O1)Oc1ccc(Br)cc1 (single isomer, unassigned; dia-1) [23 dia-1]	µL/min/mg	186
CC(C)OC(=O)[C@@H](C)NP(=O)(OC[C@H]1OC[C@@H](n2ccc(N)nc2=O)O1)Oc1ccccc1 (single isomer, unassigned; dia-1) [17 dia-1]	µL/min/mg	6
COC(=O)[C@H](C)NP(=O)(OC[C@H]1OC[C@@H](n2ccc(N)nc2=O)O1)Oc1ccccc1 (single isomer, unassigned; dia-1) [26 dia-1]	µL/min/mg	7
CC[C@@H](C)OC(=O)[C@H](C)NP(=O)(OC[C@H]1OC[C@@H](n2ccc(N)nc2=O)O1)Oc1ccccc1 (single isomer, unassigned; dia-1) [18 dia-1]	µL/min/mg	21
C[C@H](NP(=O)(OC[C@H]1OC[C@@H](n2ccc(N)nc2=O)O1)Oc1ccccc1)C(=O)OCc1ccccc1 (single isomer, unassigned; dia-1) [19 dia-1]	µL/min/mg	19
C[C@H](NP(=O)(OC[C@H]1OC[C@@H](n2ccc(N)nc2=O)O1)Oc1cccc2ccccc12)C(=O)OC1CCCCC1 (single isomer, unassigned; dia-2) [6 dia-2]	µL/min/mg	61
C[C@H](NP(=O)(OC[C@H]1OC[C@@H](n2ccc(N)nc2=O)O1)Oc1cccc2ccccc12)C(=O)OC1CCCC1 (single isomer, unassigned; dia-2) [22 dia-2]	µL/min/mg	43
COC(=O)[C@H](C)NP(=O)(OC[C@H]1OC[C@@H](n2ccc(N)nc2=O)O1)Oc1ccc(Br)cc1 (single isomer, unassigned; dia-1)	µL/min/mg	38
CC[C@@H](C)OC(=O)[C@H](C)NP(=O)(OC[C@H]1OC[C@@H](n2ccc(N)nc2=O)O1)Oc1ccc([Si](C)(C)C)cc1 (single isomer, unassigned; dia-1) [11 dia-1]	µL/min/mg	51
CCCC(CCC)COC(=O)[C@H](C)NP(=O)(OC[C@H]1OC[C@@H](n2ccc(N)nc2=O)O1)Oc1cccc2ccccc12 (single isomer, unassigned; dia-1) [14 dia-1]	µL/min/mg	88
CCCC(CCC)COC(=O)C(Cc1ccccc1)NP(=O)(OCC1OCC(n2ccc(N)nc2=O)O1)Oc1ccccc1 (mixture of isomers)	µL/min/mg	85
CCC[C@H](C)OC(=O)[C@H](C)NP(=O)(OC[C@H]1OC[C@@H](n2ccc(N)nc2=O)O1)Oc1ccc(C2CC2)cc1 (single isomer, unassigned; dia-2) [16 dia-2]	µL/min/mg	59
CCC(CC)COC(=O)[C@H](C)NP(=O)(OC[C@H]1OC[C@@H](n2ccc(N)nc2=O)O1)Oc1ccccc1 (single isomer, unassigned; dia-2) [15 dia-2]	µL/min/mg	95
CCC(CC)OC(=O)[C@H](C)NP(=O)(OC[C@H]1OC[C@@H](n2ccc(N)nc2=O)O1)Oc1ccccc1 (single isomer, unassigned; dia-2) [21 dia-2]	µL/min/mg	22
CCCC(CCC)COC(=O)[C@H](C)NP(=O)(OC[C@H]1OC[C@@H](n2ccc(N)nc2=O)O1)Oc1cccc2ccccc12 (single isomer, unassigned; dia-2) [14 dia-2]	µL/min/mg	159
CCC(CC)COC(=O)[C@H](C)NP(=O)(OC[C@H]1OC[C@@H](n2ccc(N)nc2=O)O1)Oc1ccccc1 (single isomer, unassigned; dia-1) [15 dia-1]	µL/min/mg	167
CC(C)OC(=O)[C@@H](C)NP(=O)(OC[C@H]1OC[C@@H](n2ccc(N)nc2=O)O1)Oc1ccccc1 (single isomer, unassigned; dia-2) [17 dia-2]	µL/min/mg	6
CC[C@@H](C)OC(=O)[C@H](C)NP(=O)(OC[C@H]1OC[C@@H](n2ccc(N)nc2=O)O1)Oc1cccc(C2CCC2)c1 (single isomer, unassigned; dia-1) [33 dia-1]	µL/min/mg	180
Nc1ccn([C@@H]2CO[C@H](COP(=O)(N[C@@H](Cc3ccccc3)C(=O)OCc3ccccc3)Oc3cccc(C4CC4)c3)O2)c(=O)n1 (single isomer, unassigned; dia-2) [12 dia-2]	µL/min/mg	97
C[C@H](NP(=O)(OC[C@H]1OC[C@@H](n2ccc(N)nc2=O)O1)Oc1cccc2ccccc12)C(=O)OCc1ccccc1 (single isomer, unassigned; dia-1) [9 dia-1]	µL/min/mg	133
CC[C@@H](C)OC(=O)[C@H](C)NP(=O)(OC[C@H]1OC[C@@H](n2ccc(N)nc2=O)O1)Oc1ccccc1 (single isomer, unassigned; dia-2) [18 dia-2]	µL/min/mg	30
